We begin with a simple list: items and their reported normalized growth.
- experiment summary: chemical genetic growth profiling, strain panel (AID 1159580);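 note: tested at 20 µM; growth read once vehicle control cultures reached saturation at 30 °C; 1 = growth at the plate median or of vehicle wells; lower values mean less growth of the strain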
- condition info: S. cerevisiae deletion strains, growth OD, locus YLR268W, strain sec22, active compounds read low
Hit rate of the full screen: of about 5,500 compounds, about 2,000 (36%) were called active. Not shown: some 18% with an inconclusive outcome. Some of the results follow.
observed property: normalized growth

# compound, reported result
measured = [
    ("CN=C(N)NCCCC(N)C(=O)O (stereo not drawn)", 1.01),
    ("NCC[C@@H](O)C(=O)N[C@@H]1C[C@H](N)[C@@H](O[C@H]2O[C@H](CN)[C@@H](O)[C@H](O)[C@H]2O)[C@H](O)[C@H]1O[C@H]1O[C@H](CO)[C@@H](O)[C@H](N)C1O (stereo partly drawn)", 1.04),
    ("NCCCCCC(=O)O", 0.991),
]

---

We begin with a simple list: items and their reported normalized growth.
- experiment summary: chemical genetic growth profiling, strain panel (AID 1159580)
- condition info: S. cerevisiae deletion strains, growth OD, locus YOR061W, strain CKA2, active compounds read low
Screen size: about 5,500 compounds; about 2,000 (36%) were called active. Inconclusive results (about 18%) are left out. Some of the results follow.
observed property: normalized growth

# molecule, reported result
rows = [
    ("CC1=CC(=O)N(c2ccc(F)c(Cl)c2)C1=O", 0.549),
    ("COc1cc2c(cc1OC)C1(O)C(=O)c3ccc(O)c(C(=O)O)c3OC1CO2 (stereo not drawn)", 1.05),
    ("N/C(=N/O)c1ccc(Oc2ccc(C3SCCS3)cc2)c([N+](=O)[O-])c1", 0.995),
    ("COc1ccc(CCC(=O)c2c(O)cc(O[C@@H]3O[C@H](CO)C(O)[C@H](O)C3O[C@@H]3O[C@@H](C)[C@H](O)[C@@H](O)[C@H]3O)cc2O)cc1O (stereo partly drawn)", 0.999),
    ("Fc1ccc([C@@H]2CCNC[C@H]2COc2ccc3c(c2)OCO3)cc1", 1.01),
    ("Cc1cc(CC(=O)O)n(C)c1C(=O)c1ccc(Cl)cc1", 1.01),
    ("COc1ccc2c(c1)OCC(Cc1ccc(OC)c(O)c1)C2=O (stereo not drawn)", 0.963),
    ("CC1=CC(=O)N(c2ccc(OC(F)(F)F)cc2)C1=O", 0.576),
    ("NCCCNCCSP(=O)(O)O", 1),
    ("COC1=CC(=O)OC(CCc2ccc(OC)c(OC)c2)C1 (stereo not drawn)", 1.01),
    ("COC1C=CC23c4cc5c(cc4CN(CC2O)[C@@H]3C1)OCO5 (stereo partly drawn)", 0.996),
    ("COc1ccc2c(c1)OCC(Cc1ccc(OC)c(OC)c1)C2=O (stereo not drawn)", 0.984),
    ("COc1ccc2c(c1)OCC(Cc1ccc(OC)c(OC(C)=O)c1)C2=O (stereo not drawn)", 0.995),
]

---

- experiment summary: chemical genetic growth profiling, strain panel (AID 1159580);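 note: tested at 20 µM; growth read once vehicle control cultures reached saturation at 30 °C; 1 = growth at the plate median or of vehicle wells; lower values mean less growth of the strain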
- condition info: S. cerevisiae deletion strains, growth OD, locus YKL067W, strain YNK1, active compounds read low
In all, about 5,500 compounds went through this assay and about 2,000 (36%) were called active. Not shown: some 18% with an inconclusive outcome. Some of the results follow.
Under this convention, Condition met denotes normalized growth strictly below 0.9 and Condition not met denotes normalized growth at or above 0.9.

# compound, cat
measured = [
    ("O=C(Nc1cc(Cl)ccc1O)c1ccccc1CSc1ccc(Cl)cc1", "Condition met"),
    ("CC1=CC(=O)N(c2ccc(F)c(Cl)c2)C1=O", "Condition met"),
    ("O=C(Nc1ccncc1)c1cc(-c2ccccc2)oc1C(F)(F)F", "Condition not met"),
    ("COc1ccc(-c2cn3cc(C)ccc3n2)cc1", "Condition not met"),
    ("Cc1ccc(S(=O)(=O)Nc2nc(-c3ccc(C)c(Cl)c3)c(C)s2)cc1", "Condition not met"),
    ("CC1CCC(C(C)C)C(N(Cc2ccccc2)C(=O)c2ccccc2)C1 (stereo unspecified)", "Condition not met"),
    ("Clc1ccc(Oc2ccnc3cc(Cl)ccc23)cc1", "Condition met"),
    ("CC1C(c2ccccc2)N(C)C(c2ccccc2)CC1(O)c1ccc(F)cc1 (stereo unspecified)", "Condition not met"),
    ("Brc1ccc(-c2csc(-c3cccnc3)n2)cc1", "Condition met"),
    ("Cc1ccc(NC(=S)C(C#N)C(=O)N2CCOCC2)c(C)c1 (stereo unspecified)", "Condition not met"),
    ("O=S(=O)(NCc1ccc(C(F)(F)F)cc1)c1cc(Br)c(Br)s1", "Condition met"),
    ("Cc1noc(C)c1S(=O)(=O)Nc1csc(C(F)(F)F)c1-c1ccccc1", "Condition not met"),
    ("O=S(=O)(Nc1csc(C(F)(F)F)c1-c1ccccc1)c1cc(Br)c(Br)s1", "Condition not met"),
    ("O=S(=O)(NCc1ccc(C(F)(F)F)cc1)c1cccc(C(F)(F)F)c1", "Condition not met"),
    ("CC1=CC(=O)N(c2ccc(OC(F)(F)F)cc2)C1=O", "Condition met"),
    ("Clc1ccccc1-c1csc(-c2ccncc2)n1", "Condition not met"),
    ("O=C(NNc1ccccc1)c1cc(-c2ccc(Cl)cc2)oc1C(F)(F)F", "Condition met"),
    ("Cn1nccc1-c1cc(Cl)cc(Cl)c1O", "Condition met"),
]

---

We begin with a simple list: items and their reported normalized growth.
- experiment summary: chemical genetic growth profiling, strain panel (AID 1159580);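 note: tested at 20 µM; growth read once vehicle control cultures reached saturation at 30 °C; 1 = growth at the plate median or of vehicle wells; lower values mean less growth of the strain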
- condition info: S. cerevisiae deletion strains, growth OD, locus YBR171W, strain sec66, active compounds read low
Out of some 5,500 compounds screened, about 2,000 (36%) were called active. Another 18% or so got no clear call; they are omitted. The list shows a part of the results.

# molecule, normalized growth
records = [
    ("CC(=O)O[C@H]1CC[C@@]2(C)C(C[C@@H](OC(C)=O)[C@]3(C)C2CC[C@@]2(C)[C@H](c4ccoc4)OC(=O)[C@H]4O[C@]423)C1(C)C (stereo partly drawn)", 1),
    ("CC(=O)O[C@@H]1CC2C(C)(C)[C@@H](O)CC[C@]2(C)C2CC[C@@]3(C)[C@H](c4ccoc4)OC(=O)[C@H]4O[C@]43[C@@]21C (stereo partly drawn)", 0.993),
    ("Cc1cc(/C=C/c2ccc3cc(N(C)C)ccc3[n+]2C)c(C)n1-c1ccccc1", 1.04),
    ("CC1(C)C(=O)[C@@H]2O[C@@H]2[C@@]2(C)C1C[C@@H](O)[C@]1(C)C2CC[C@@]2(C)[C@H](c3ccoc3)OC(=O)C3OC321 (stereo partly drawn)", 0.994),
    ("NC1(C(=O)O)CC1", 1.04),
    ("COc1ccnc(CS(=O)c2nc3ccc(OC(F)F)cc3[nH]2)c1OC (stereo not drawn)", 1.03),
    ("NC1(C(=O)O)CCCC1", 1.03),
    ("CN[C@@H]1C(OC2[C@H](O[C@H]3[C@H](O)[C@@H](O)[C@H](N=C(N)N)[C@@H](O)[C@@H]3N=C(N)N)OC(C)[C@]2(O)CO)OC(CO)C(O)C1O (stereo partly drawn)", 0.996),
]

---

- experiment summary: chemical genetic growth profiling, strain panel (AID 1159580);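 note: tested at 20 µM; growth read once vehicle control cultures reached saturation at 30 °C; 1 = growth at the plate median or of vehicle wells; lower values mean less growth of the strain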
- condition info: S. cerevisiae deletion strains, growth OD, locus YEL003W, strain gim4
In all, about 5,500 compounds went through this assay and about 2,000 (36%) were called active. Roughly 18% stayed inconclusive and do not appear here. Cut-off read from the data, not from the text of the source: active = normalized growth mostly below about 0.91 (no sharp cut-off); inconclusive = no clear call, values can overlap the other calls; inactive = mostly above about 0.92. The list shows a part of the results.
Possible outcomes: class 1 (active), class 0 (inactive)

# compound, cat
rows = [
    ("Clc1ccc(CSC(Cn2ccnc2)c2ccc(Cl)cc2Cl)cc1 (stereo not given)", "class 1"),
    ("COc1ccc(-c2oc3cc(OC)c(OC)c(OC)c3c(=O)c2OC)cc1", "class 0"),
    ("CC(=O)Oc1ccc2c(c1)CCC1C2CC[C@]2(C)C(=O)CCC12 (stereo not given in full)", "class 0"),
    ("CC(=O)C1CC[C@H]2C3CC[C@H]4C[C@H](O)CC[C@]4(C)C3CC[C@]12C (stereo not given in full)", "class 0"),
    ("Clc1ccc(COC(Cn2ccnc2)c2ccc(Cl)cc2Cl)c(Cl)c1 (stereo not given)", "class 1"),
    ("CC(=O)OCC(=O)[C@@]1(O)CCC2C3CCC4=CC(=O)C=CC4(C)C3[C@@H](O)C[C@@]21C (stereo not given in full)", "class 0"),
    ("Cc1oncc1C(=O)Nc1ccc(C(F)(F)F)cc1", "class 0"),
    ("CC(=O)Oc1c2c(c3c(c1CC=C(C)C)O[C@]14C(=C[C@@H]5CC1C(C)(C)OC4(C/C=C(\\C)C(=O)O)C5=O)C3=O)OC(C)(CCC=C(C)C)C=C2 (stereo not given in full)", "class 0"),
    ("Clc1ccc(COC(Cn2ccnc2)c2ccc(Cl)cc2Cl)cc1 (stereo not given)", "class 1"),
    ("CCCn1c(=O)c2[nH]c(C3CCCC3)nc2n(CCC)c1=O", "class 0"),
    ("CN(C)CCC(c1ccccc1)c1ccccn1 (stereo not given)", "class 0"),
    ("CCC(C)C(=O)c1c(O)c(C)c2oc3c(C)c(O)c(C(=O)C(C)CC)c(O)c3c2c1O (stereo not given)", "class 0"),
    ("COc1cc(C)c2c(=O)cc(-c3ccccc3)oc2c1", "class 1"),
    ("C[C@]12CCC3c4ccc(O)cc4CCC3C1CCC2=O (stereo not given in full)", "class 0"),
    ("COc1ccc2c(c1)OCC(Cc1ccc(OC)c(OC(C)=O)c1)C2=O (stereo not given)", "class 0"),
    ("Clc1ccc(CO/N=C(/Cn2ccnc2)c2ccc(Cl)cc2Cl)c(Cl)c1", "class 1"),
    ("COc1ccc(-c2oc3cc(OC)c(OC)c(OC)c3c(=O)c2OC)cc1OC", "class 0"),
    ("C[C@]12CCC3c4ccc(OC(=O)c5ccccc5)cc4CCC3C1CCC2=O (stereo not given in full)", "class 0"),
    ("CC(=O)Oc1c2c(c(CC=C(C)C)c3c1C(=O)C1=C[C@@H]4CC5C(C)(C)OC(C/C=C(\\C)C(=O)O)(C4=O)[C@@]15O3)OC(C)(CCC=C(C)C)C=C2 (stereo not given in full)", "class 0"),
    ("COc1cc2c(cc1OC)C1(O)C(=O)c3ccc(O)c(C(=O)O)c3OC1CO2 (stereo not given)", "class 0"),
]
